Reference source: ChEMBL document CHEMBL1125451

# Test system: Rattus norvegicus
# Procedure Details: In vivo pressor activity by vasopressin assay in rats
# Assay type: functional
Numbered stars: 1 amine (or outer) side, 2 acyl side, 3 side chain; on linkers, the order of the positions; unused ones are H or OH. Bridge positions count the residues as written; N and C are the ends. Square brackets hold non-standard residues; d marks the D form. Peptide text beside a SMILES is read from it. X1 = CC(C)(CC(=O)[*:1])S[*:2]; Mpa = O=C(O)CCS
Quantity Name: Activity
For clarity, give the value followed by its unit.

Molecule: CC[C@H](C)[C@@H]1NC(=O)[C@H](Cc2ccc(O)cc2)NC(=O)CCSSC[C@@H](C(=O)N2CCC[C@H]2C(=O)N[C@@H](CCCCNC=O)C(=O)NCC(N)=O)NC(=O)[C@H](CC(N)=O)NC(=O)[C@H](CCC(N)=O)NC1=O
Tested On: Rattus norvegicus
Readout Value: 101.6 IU mg-1

Problem: # query: Activity | item CC[C@H](C)[C@@H]1NC(=O)[C@H](Cc2ccc(O)cc2)NC(=O)CC(C)(C)SSC[C@@H](C(=O)N2CCC[C@H]2C(=O)N[C@@H](CCCCN)C(=O)NCC(N)=O)NC(=O)[C@H](CC(N)=O)NC(=O)[C@H](CCC(=O)O)NC1=O (YIENCPKG-NH2; linker N-5 via X1) | system: Rattus norvegicus
Solution: 0 IU mg-1

Problem: Query CC[C@H](C)[C@@H]1NC(=O)[C@H](Cc2ccc(O)cc2)NC(=O)CCSSC[C@@H](C(=O)N2CCC[C@H]2C(=O)N[C@@H](CCCCN)C(=O)NCC(N)=O)NC(=O)[C@H](CC(N)=O)NC(=O)[C@H](CCC(=O)O)NC1=O next
Solution: 0.1 IU mg-1

Problem: Query CC[C@H](C)[C@@H]1NC(=O)[C@H](Cc2ccc(O)cc2)NC(=O)CCSSC[C@@H](C(=O)N2CCC[C@H]2C(=O)N[C@@H](CCCCN)C(=O)NCC(N)=O)NC(=O)[C@H](CC(N)=O)NC(=O)[C@H](CCC(N)=O)NC1=O next
Solution: 368 IU mg-1

Problem: Query CC[C@H](C)[C@@H]1NC(=O)[C@H](Cc2ccc(O)cc2)NC(=O)[C@@H](N)CSSC[C@@H](C(=O)N2CCC[C@H]2C(=O)N[C@@H](CC(C)C)C(=O)NCC(N)=O)NC(=O)[C@H](CC(N)=O)NC(=O)[C@H](CCC(N)=O)NC1=O next
Solution: 3.1 IU mg-1

Problem: Query CC[C@H](C)[C@@H]1NC(=O)[C@H](Cc2ccc(O)cc2)NC(=O)CCSSC[C@@H](C(=O)N2CCC[C@H]2C(=O)N[C@@H](CC(C)C)C(=O)NCC(N)=O)NC(=O)[C@H](CC(N)=O)NC(=O)[C@H](CCC(N)=O)NC1=O next
Solution: 1.44 IU mg-1

Problem: Query CC[C@H](C)[C@@H]1NC(=O)[C@H](Cc2ccc(O)cc2)NC(=O)CCSSC[C@@H]2NC(=O)[C@H](CC(N)=O)NC(=O)[C@H](CCC(=O)NCCCC[C@@H](C(=O)NCC(N)=O)NC(=O)[C@@H]3CCCN3C2=O)NC1=O ([Mpa]YIENCPKG-NH2; disulfide 1-6; lactam 4-8) next
Solution: 0.1 IU mg-1
